Assay read-out pIC50 on Receptor-type tyrosine-protein kinase FLT3 (Homo sapiens, UniProt P36888); records merged from the literature.
pIC50: −log10 of the molar value.

CN(C)CCNc1ccc2c(n1)sc1nc(-c3ccc(NC(=O)Nc4cc(C(C)(C)C)on4)cc3)cn12: 8.00
CC(C)N1CCN(Cc2ccc(NC(=O)Nc3ccc(Oc4cc(Cl)ncn4)cc3)cc2C(F)(F)F)CC1: 6.22
C[C@@H](Nc1ncc2c(-c3cnn(C4COC4)c3)cc([C@H]3CC[C@H](O)CC3)n2n1)C(F)(F)F: 6.00 to 7.00

GET /values?item= `C[C@@H](COC(F)F)Nc1ncc2c(-c3cnn(CCC#N)c3)cc([C@H]3CC[C@H](O)CC3)n2n1` &system= Receptor-type tyrosine-protein kinase FLT3 (Homo sapiens, UniProt P36888) returns pIC50: ≥ 7.00

GET /values?item= `COC[C@H](C)Nc1ncc2c(-c3cnn(CC(=O)O)c3)cc([C@H]3CC[C@H](O)CC3)n2n1` &system= Receptor-type tyrosine-protein kinase FLT3 (Homo sapiens, UniProt P36888) returns pIC50: 5.00 to 6.00

###

Assay read-out IC50 on UniProt:P36888; records merged from the literature.

COC[C@H](C)Nc1ncc2c(-c3cn(C)nn3)cc([C@H]3CC[C@H](O)CC3)n2n1: 1 to 10 µM

// sample `C[C@@H](CC(F)(F)F)Nc1ncc2c(-c3ccc(S(C)(=O)=O)nc3)cc([C@H]3CC[C@H](O)CC3)n2n1` , its IC50 was ≤ 0.1 µM

// sample `Fc1ccc2cc(Nc3cc(CN4CCCC4)ccn3)ncc2c1` , its IC50 was < 0.1 µM

// sample `COC[C@H](C)Nc1ncc2c(O[C@H]3CCOC3)ncc([C@H]3CC[C@H](O)CC3)c2n1` , its IC50 was 1 to 10 µM

// sample `CC[C@H](C)Nc1ncc2c(C)ncc([C@H]3CC[C@H](O)CC3)c2n1` , its IC50 was 1 to 10 µM

// sample `CCCCC[C@H](C)Nc1ncc2c(-c3ccc(CN4CCN(C)CC4)cc3)cc([C@H]3CC[C@H](O)CC3)n2n1` , its IC50 was 0.1 to 1 µM

// sample `O[C@H]1CC[C@H](c2cnc(OC3CCNCC3)c3cnc(N[C@H]4CCOC4)nc32)CC1` , its IC50 was 1 to 10 µM

// sample `CCN(CC)CCOc1ccc2cc1COC/C=C/CCOc1cccc(c1)-c1nc(ncc1C)N2` , its IC50 was ≤ 1 µM

// sample CCc1nc2c(N)ncc(-c3cnn(C4CCN(C5CCN(C)CC5)CC4)c3)c2nc1NC1CCC(O)C1 (stereo not shown) , its IC50 was ≤ 0.01 µM

// sample `COc1ccc(-c2n[nH]c3c2Cc2sc(-c4ccncc4)cc2-3)cc1` , its IC50 was < 0.1 µM

// sample `O[C@H]1CC[C@H](c2cnc(OC3CCNCC3)c3cnc(NC4CCC(F)(F)CC4)nc32)CC1` , its IC50 was 1 to 10 µM

// sample `Fc1cccc(Nc2ncc(Cc3c[nH]c4ncc(Cl)cc34)cn2)c1` , its IC50 was < 0.1 µM

// sample `COc1ccc(-n2cccc(C(=O)Nc3ccc4c(c3)NC(=O)/C4=C\c3ccc[nH]3)c2=O)cc1` , its IC50 was > 1 µM

// sample `C1=C/COCc2cc(ccc2OCCN2CCCC2)Nc2nccc(n2)-c2coc(c2)COC/1` , its IC50 was ≤ 1 µM

// sample `COc1ccc(C(=O)NC(=O)Nc2ccc3c(c2)NC(=O)/C3=C\c2[nH]c(C)c(C(=O)NCCN(C)C)c2C)c(F)c1` , its IC50 was 0.0162 µM

// sample `CCc1nc2c(N)ncc(-c3cnn(C4CCN(C5CCN(C6CC6)CC5)CC4)c3)c2nc1NC1CCOCC1` , its IC50 was ≤ 0.01 µM

###

pIC50: −log10 of the molar value.
Assay read-out pIC50 on Receptor-type tyrosine-protein kinase FLT3 (Homo sapiens); records merged from the literature.

Oc1ccc(/C=C/c2cc(-c3cccc(F)c3)[nH]n2)cc1: 6.30 to 7.30

// sample `CCc1nc2c(N)ncc(-c3cnn(-c4ccc(C(C)(C)O)nc4)c3)c2nc1N[C@@H]1CC[C@H](O)C1` , its pIC50 was ≥ 8.00

// sample `O[C@H]1CC[C@H](c2cnc(OC3CCOCC3)c3cnc(N[C@H]4CCC(F)(F)C4)nc32)CC1` , its pIC50 was 6.00 to 7.00

// sample `CCOc1ncc(CC2CCN(C(=O)OC(C)(C)C)CC2)c2nc(N[C@@H](C)CC)ncc12` , its pIC50 was 5.00 to 6.00

// sample `COC[C@H](C)Nc1ncc2c(-c3ccnc(N4CCN(S(C)(=O)=O)CC4)c3)cc([C@H]3CC[C@H](O)CC3)n2n1` , its pIC50 was 6.00 to 7.00

###

Assay read-out IC50 on Receptor-type tyrosine-protein kinase FLT3 (Homo sapiens, UniProt P36888); records merged from the literature.

// worked examples, IC50 included
Cc1ccc2sc3c(NCCCNCCO)nc4ccccc4c3c(=O)c2c1: 201 to 500 nM
CCCCC[C@H](C)Nc1ncc2c(C3=CC[C@@H](C(=O)N4CCOCC4)CC3)cc([C@H]3CC[C@H](O)CC3)n2n1: 100 to 1000 nM
CN1CCN(c2ccc3[nH]c(-c4cc(-c5ccc(NC(=O)Nc6cc(F)cc(F)c6)cc5)[nH]n4)nc3c2)CC1: < 50 nM

Now look at this entry.
GET /values?item= `O=c1c2cc(Cl)ccc2sc2c(NCCO)nc3ccccc3c12` &system= Receptor-type tyrosine-protein kinase FLT3 (Homo sapiens, UniProt P36888) returns IC50: > 1000 nM

###

Assay read-out IC50 on Receptor-type tyrosine-protein kinase FLT3 (Homo sapiens, UniProt P36888); records merged from the literature.

COC[C@H](C)Nc1ncc2c(-c3ccnc(C)c3)cc([C@H]3CC[C@](C)(O)CC3)n2n1: 100 to 1000 nM
CN1CCN(c2ccc3nc(-c4cc(-c5ccc(NC(=O)Nc6ccc(C(F)(F)F)cc6)cc5)[nH]n4)[nH]c3c2)CC1: < 50 nM
COC[C@H](C)Nc1ncc2c(-c3cncc(CN4CCOCC4)c3)cc([C@H]3CC[C@H](O)CC3)n2n1: 1000 to 10000 nM
Clc1ccc(Nc2n[nH]c3c2Cc2sccc2-3)c(Cl)c1: 500 to 1000 nM
Cc1ccc(NC(=O)Nc2ccc(-c3cc(-c4ccc(N5CCN(C)CC5)cc4)[nH]n3)cc2)cc1C: < 50 nM

Now look at this entry.
// sample `O=C1NCCN(C2CC2)CCN(CCO)c2ccn3ncc(c3n2)-c2cccc1c2` , its IC50 was 100 to 1000 nM

###

Assay read-out IC50 on UniProt:P36888; records merged from the literature.

// worked examples, IC50 included
CCc1nc(C(N)=O)c(Nc2ccc3c(c2)OC[C@@H]2CN(C)CC(=O)N32)nc1NC1CCOCC1: < 10 nM
CCc1nc2c(N)ncc(-c3cnn(C4CCN(C5CCC5)CC4)c3)c2nc1N[C@@H]1CC[C@H](O)C1: ≤ 10 nM
NC(=O)c1ccc(Nc2ncc3c(OC4CCOCC4)ncc([C@H]4CC[C@H](O)CC4)c3n2)cc1: ≤ 100 nM
Oc1ccc(/C=C/c2cc(-c3ccc4ccccc4c3)[nH]n2)cc1: 50 to 500 nM

GET /values?item= `Clc1cc(Cl)cc(-c2ccc(-c3n[nH]c4c3Cc3sccc3-4)cc2)c1` &system= UniProt:P36888 returns IC50: 100 to 499 nM

GET /values?item= `COC[C@H](C)Nc1ncc2c(-c3ccc(C(=O)N4CCS(=O)(=O)CC4)cc3)cc([C@H]3CC[C@H](O)CC3)n2n1` &system= UniProt:P36888 returns IC50: 100 to 1000 nM

GET /values?item= `CCc1nc2c(N)ncc(-c3cnn(CC(C)(C)O)c3)c2nc1N[C@@H]1CC[C@H](O)C1` &system= UniProt:P36888 returns IC50: ≤ 10 nM

###

Assay read-out IC50 on Receptor-type tyrosine-protein kinase FLT3 (Homo sapiens); records merged from the literature.

COc1ccc(-c2n[nH]c3c2Cc2sc(-c4cccc(N)c4)cc2-3)cc1: < 100 nM
CC(C)Nc1ncc2c(OC3CCOCC3)ncc(-c3cccc(CC(=O)O)c3)c2n1: 1000 to 10000 nM
C[C@@H](COC(F)F)Nc1ncc2c(-c3ccnc(N4CCOC(C(C)(C)O)C4)c3)cc([C@H]3CC[C@H](O)CC3)n2n1 (stereo partly shown): 100 to 1000 nM

Now look at this entry.
// sample `COc1ccccc1Nc1ncc(Cc2c[nH]c3ncc(Cl)cc23)cn1` , its IC50 was < 100 nM

###

Assay read-out IC50 on Receptor-type tyrosine-protein kinase FLT3 (Homo sapiens); records merged from the literature.

COC[C@H](C)Nc1ncc2c(-c3ccnc(OC4COC4)c3)cc([C@H]3CC[C@H](O)CC3)n2n1: 1000 to 10000 nM
C[C@@H](CC(F)(F)F)Nc1ncc2c(O[C@H]3C[C@@H](O)C3)ncc([C@H]3CC[C@H](O)CC3)c2n1: 100 to 1000 nM
COC[C@H](C)Nc1ncc2c(-c3cnn(C4COC4)c3)cc([C@@H]3CC[C@H](O)[C@H](C)C3)n2n1: 100 to 1000 nM
COc1cc2nccc(Oc3ccc(NC(=O)C4(C(=O)Nc5ccc(F)cc5O)CC4)cc3)c2cc1OC: < 50 nM
COC[C@H](C)Nc1ncc2c(O[C@H]3C[C@H](O)C3)ncc([C@H]3CC[C@H](O)CC3)c2n1: 1000 to 10000 nM

GET /values?item= `COC[C@H](C)Nc1ncc2c(-c3cnn(C(C)(C)c4nc(C)co4)c3)cc([C@H]3CC[C@H](O)CC3)n2n1` &system= Receptor-type tyrosine-protein kinase FLT3 (Homo sapiens) returns IC50: 1000 to 10000 nM

GET /values?item= `CNC(=O)c1ccc(Nc2ncc3c(OC4CCOCC4)ncc([C@H]4CC[C@H](O)CC4)c3n2)cc1` &system= Receptor-type tyrosine-protein kinase FLT3 (Homo sapiens) returns IC50: 100 to 1000 nM

GET /values?item= `COC[C@H](C)Nc1ncc2c(-c3cnn(C4COC4)c3)cc([C@H]3CC[C@H](O)C(F)(F)C3)n2n1` &system= Receptor-type tyrosine-protein kinase FLT3 (Homo sapiens) returns IC50: 100 to 1000 nM

GET /values?item= `CC(C)OC[C@H](C)Nc1ncc2c(-c3ccc(CN4CCOCC4)cc3)cc([C@H]3CC[C@H](O)CC3)n2n1` &system= Receptor-type tyrosine-protein kinase FLT3 (Homo sapiens) returns IC50: 1000 to 10000 nM

GET /values?item= `C[C@@H](CC(F)(F)F)Nc1ncc2c(OC3CCN(c4ncccn4)CC3)ncc([C@H]3CC[C@H](O)CC3)c2n1` &system= Receptor-type tyrosine-protein kinase FLT3 (Homo sapiens) returns IC50: 1000 to 10000 nM

GET /values?item= `Cc1cccc(-c2ccc(NC(=O)Nc3ccc(Oc4cc(N)ncn4)cc3)cc2C(F)(F)F)n1` &system= Receptor-type tyrosine-protein kinase FLT3 (Homo sapiens) returns IC50: 160 nM
